Tested on: KM12
Test: NCI tumour cell line growth inhibition, 48 h
Activity calls are given as the source filed them. Rule as the data show it: active = GI50 up to about 1.1 µM and inactive = higher.
Answer with one of the outcomes given here: active, inactive

COc1ccc2nc3cc(Cl)ccc3c(NCCCN(Cc3cc(OC)c(OC)c(OC)c3)Cc3cc(OC)c(OC)c(OC)c3)c2c1 | inactive
COc1ccc(Nc2nnc(CCCCCCCCc3nnc(Nc4ccc(OC)cc4)o3)o2)cc1 | inactive
Cc1cccc(-c2cc(O)c3c(C)ccnc3n2)c1 | active
CC(C)(C)N1C=[N+](C(C)(C)C)CC1 | inactive
CC(O)CC(O)(C(F)(F)F)C(F)(F)F (stereo not given) | inactive

INPUT: // return assay outcome for Cl/C(=C\C=N\c1ccc(I)cc1)c1ccc2ccccc2c1
OUTPUT: inactive

INPUT: // return assay outcome for COC(=O)C1=C(c2cc(OC)c(OC)c(OC)c2)OC(c2cc(OC)c(OC)c(OC)c2)C1COC(C)=O (stereo not given)
OUTPUT: inactive

INPUT: // return assay outcome for Clc1ccccc1/C=C/c1nsc(/C=C/c2ccccc2Cl)n1
OUTPUT: inactive

INPUT: // return assay outcome for N#CC(N)(C(=O)CCC(=O)Nc1cccc(Cl)c1)c1ccc(Cl)cc1 (stereo not given)
OUTPUT: inactive

INPUT: // return assay outcome for COc1c(C(=O)/C(=N/Nc2ccccc2)C(C)=O)c(O)c(OC)c2occc12
OUTPUT: inactive
